The entries below are paired with their reported log10 IC50.
- assayed.target: human CXCR4 (Homo sapiens)
- Construct: expressed in transfected cells; host or cells: HEK-293 cells (stably expressing human macrophage scavenging receptor) transduced with human CXCR4 BacMam and Gqi5 BacMam baculovirus
- Sequence (P61073 whole entry): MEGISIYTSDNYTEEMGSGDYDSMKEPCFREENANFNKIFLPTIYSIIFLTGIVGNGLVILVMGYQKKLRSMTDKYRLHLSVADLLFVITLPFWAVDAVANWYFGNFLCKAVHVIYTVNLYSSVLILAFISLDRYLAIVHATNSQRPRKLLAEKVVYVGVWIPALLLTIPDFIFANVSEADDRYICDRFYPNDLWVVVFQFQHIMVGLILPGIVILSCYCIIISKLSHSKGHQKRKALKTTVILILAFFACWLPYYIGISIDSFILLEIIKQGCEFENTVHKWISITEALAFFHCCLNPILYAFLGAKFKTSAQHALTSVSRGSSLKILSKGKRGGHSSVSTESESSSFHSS
- assay.comment: Functional FLIPR assay (block of SDF-1 alpha calcium response)
- Assay type: cell-based
- condition.set: HEK-293 cells with human CXCR4 and Gqi5 BacMam; antagonism of SDF-1 alpha [Ca2+]i change; read-out: Functional assay (pIC50) (converted)
Structures can show the parent of a compound that is named as a salt.
Please keep in mind that the values are log10 of IC50 expressed in nM.

compound: NCCCn1c(CN2CCC[C@@H]3CCc4cccnc4[C@H]32)nc2ccccc21 (racemic)
log10 IC50: 2.10
--
compound: CN(C)CCCn1c(CN2CCC[C@@H]3CCc4cccnc4[C@H]32)nc2ccccc21 (stereo in doubt) [Example 10B]
log10 IC50: 1.97
--
compound: c1cnc2c(c1)CC[C@@H]1CCCN(Cc3nc4ccccc4[nH]3)[C@H]21 (racemic)
log10 IC50: 2.64
--
compound: c1cnc2c(c1)CC[C@H]1CCCN(Cc3nc4ccccc4[nH]3)[C@H]21 (racemic)
log10 IC50: 2.10
--
compound: CN(C)CCCn1c(CN2CCC[C@@H]3CCc4cccnc4[C@@H]32)nc2ccccc21 [Example 11A]
log10 IC50: 2.93
--
compound: CN1CCN(c2cccc3[nH]c(CN4CCC[C@@H]5CCc6cccnc6[C@H]54)nc23)CC1 (racemic) [Example 32, trifluoroacetate]
log10 IC50: 2.68
--
compound: CN1CCN(c2cccc3nc(CN4CCC[C@@H]5CCc6cccnc6[C@H]54)cn23)CC1 (racemic) [Example 15A]
log10 IC50: 1.61
--
compound: CN(C)CCCn1c(CN2CCC[C@H]3CCc4cccnc4[C@H]32)nc2ccccc21 [Example 11B]
log10 IC50: 1.02

Next:
Input line: Return reported log10 IC50; argument: CN1CCN(c2cccc3nc(CN4CCC[C@H]5CCc6cccnc6[C@H]54)cn23)CC1 (racemic) [Example 15B]
Output line: 0.53
